The measurements presented in this section are drawn from patent US11414429B2.

measured_target: tankyrase 1 (TNKS 1) (Homo sapiens)
Construct: 1,024-1,327aa; made in house; host or cells: cell-free protein synthesis system
Sequence (O95271 1024-1327): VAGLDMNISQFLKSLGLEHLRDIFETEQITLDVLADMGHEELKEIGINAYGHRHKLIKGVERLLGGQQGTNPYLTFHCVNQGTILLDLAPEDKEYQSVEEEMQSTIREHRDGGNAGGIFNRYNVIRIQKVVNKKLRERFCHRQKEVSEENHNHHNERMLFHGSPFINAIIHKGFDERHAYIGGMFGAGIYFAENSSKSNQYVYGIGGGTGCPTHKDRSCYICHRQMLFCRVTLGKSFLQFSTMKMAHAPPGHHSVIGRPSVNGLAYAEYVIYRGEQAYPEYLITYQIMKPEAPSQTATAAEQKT
experiment_notes: Tankyrase inhibitory activity test (ELISA, self-polyADP ribosylation), tankyrase 1
Assay type: biochemical
settings: ELISA, self-polyADP ribosylation; class symbols; read-out: TNKS1 (inhibitory activity against tankyrase 1, IC50 value)
pIC50: −log10 of the molar value.
# pIC50 listing for each entry below
measured_metric: pIC50

1) COCCN1C(=O)C2(CCN(c3nc4c(c(=O)[nH]3)CCCN4C)CC2)c2c(F)cc(N3CCNCC3)cc21	> 7.70
2) CN1CCCc2c1nc(N1CCC3(CC1)C(=O)N(C)c1cc(OCCNS(=O)(=O)N(C)C)cc(F)c13)[nH]c2=O	> 7.70
3) CN1CCC(Oc2ccc(F)c3c2N(C)C(=O)C32CCN(c3nc4c(c(=O)[nH]3)CCCN4C)CC2)CC1	> 7.70
4) COc1ccc(Cl)c2c1N(CC(C)(C)O)C(=O)C21CCN(c2nc3c(c(=O)[nH]2)CCCN3)CC1	> 7.70
